Would you kindly list pIC50 for each of these compounds?
Molecular target: acyl-CoA cholesterol acyltransferase (ACAT)
Assay: Inhibitory action against acyl-CoA cholesterol acyltransferase (ACAT) activity in rabbit liver microsome
Type: biochemical
Settings: 36 μM [1-14C]oleoyl CoA, pH 7.4, 37° C., 10 minutes, read-out: ACAT Inhibiting Activity IC50 (50% Inhibition Concentration)
Give bare numbers, as −log10 of the molar value.

[
  {
    "Compound": "Cc1cc(C)c(NC(=O)N(Cc2cc3ccccc3c3ccccc23)C2CCCCCC2)c(C)c1 [Example 10]",
    "pIC50": 7.21
  }
]

pIC50 value, target or system acyl-CoA cholesterol acyltransferase (ACAT), for Cc1cc(C)c(NC(=O)N(Cc2ccc3c(c2)Cc2ccccc2-3)C2CCCCCC2)c(C)c1 [Example 1] : 7.14
